Hey, just so you know, these numbers are from paper PMC3135787.

biological target: recombinant HCV NS5B genotype 1b (Con1 strain), wild-type (Hepatitis C virus genotype 1b, UniProt Q9WMX2); experiment: NS5B polymerase assay, genotype 1b wild-type; assay type: biochemical; conditions: IC50, genotype 1b NS5B, 1 μM NTPs
Sequence (Q9WMX2 2420-3010): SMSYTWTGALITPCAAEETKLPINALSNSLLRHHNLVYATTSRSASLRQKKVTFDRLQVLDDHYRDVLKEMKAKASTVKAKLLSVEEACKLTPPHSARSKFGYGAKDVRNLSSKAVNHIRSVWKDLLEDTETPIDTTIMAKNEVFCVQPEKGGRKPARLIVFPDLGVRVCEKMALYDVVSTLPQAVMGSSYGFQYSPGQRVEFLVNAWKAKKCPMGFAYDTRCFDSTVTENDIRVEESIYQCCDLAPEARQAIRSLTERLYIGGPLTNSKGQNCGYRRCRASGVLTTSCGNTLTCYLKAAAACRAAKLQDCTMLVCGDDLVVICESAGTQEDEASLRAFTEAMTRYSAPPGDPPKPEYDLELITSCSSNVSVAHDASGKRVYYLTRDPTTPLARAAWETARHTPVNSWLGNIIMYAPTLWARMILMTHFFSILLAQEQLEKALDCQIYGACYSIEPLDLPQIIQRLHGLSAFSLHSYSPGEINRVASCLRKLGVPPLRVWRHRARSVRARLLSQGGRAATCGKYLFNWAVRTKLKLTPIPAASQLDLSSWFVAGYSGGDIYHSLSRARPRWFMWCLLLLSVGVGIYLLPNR
Readout label: IC50 (nM)
Hi! Could you send only the number? It should be in nM, unit omitted.

Any idea what its IC50 is? The compound is C[C@@]1(F)[C@H](O)[C@@H](COP(=O)(O)OP(=O)(O)OP(=O)(O)O)O[C@H]1n1cnc2c(=O)[nH]c(N)nc21 [PSI-352666]
1000

====

molecular target: recombinant NS5B genotype 2a (JFH-1 strain) (Hepatitis C virus genotype 2a); assay: NS5B polymerase assay, genotype 2a
Readout label: pIC50
Please express pIC50 as -log10 of the molar concentration.

Need pIC50, item C[C@@]1(F)[C@H](O)[C@@H](COP(=O)(O)OP(=O)(O)OP(=O)(O)O)O[C@H]1n1cnc2c(=O)[nH]c(N)nc21
5.33

====

system: HepG2 cells; assay: 8-day MTS cytotoxicity assay, HepG2; type: cell-based, human; conditions: HepG2, eight days, MTS
Readout label: CC50

Quick check: CC50 on HepG2 cells, item COc1nc(N)nc2c1ncn2[C@@H]1O[C@H](COP(=O)(N[C@@H](C)C(=O)OC(C)C)Oc2ccccc2)[C@@H](O)[C@@]1(C)F (stereo partly shown) ?
> 100 µM

====

assay: 8-day MTS cytotoxicity assay, Huh7; assay type: cell-based, human; conditions: human
Readout label: CC50 at 8 days (nM)
Only the number, expressed in nM, is required.

Requested field: CC50 at 8 days. Item: COc1nc(N)nc2c1ncn2[C@@H]1O[C@H](COP(=O)(N[C@@H](C)C(=O)OCC(C)(C)C)Oc2cccc3ccccc23)[C@@H](O)[C@@]1(C)O (stereo partly shown)
320

====

tested on: Huh7 cells; assay: 8-day MTS cytotoxicity assay, Huh7; format: cell-based, human; conditions: Huh7, eight days, MTS
Readout label: CC50 (µM)
Give your result in µM as a bare value.

Dear colleague, I am looking for the recorded CC50 of the following compound: COc1nc(N)nc2c1ncn2[C@@H]1O[C@H](COP(=O)(N[C@@H](C)C(=O)OC(C)C)Oc2ccccc2)[C@@H](O)[C@@]1(C)F (stereo partly shown)
80
